experiment: Cytotoxicity, CellTiter Glo
Format: cell-based
conditionsUsed: human, HL-60 cells, 5-day proliferation
measuredParameter: IC50 at 5 day (µM)
Answers are plain numbers, in µM.

So what's the measured IC50 at 5 day for this one? COc1cc2c(NC3CCN(C(C)C)CC3)nc(C3CCCCC3)nc2cc1OCCCN1CCCC1 [UNC0638, reference compound] 6.5

----------
experiment: Cytotoxicity, CellTiter Glo
Assay type: cell-based
conditionsUsed: human, DaoY cells, 7-day proliferation, neural crest derived lines
measuredParameter: IC50 at 7 day (nM)
Answers are plain numbers, in nM.

# IC50 at 7 day lookup, item COc1cc2c(NC3CCN(C(C)C)CC3)nc(C3CCCCC3)nc2cc1OCCCN1CCCC1 [UNC0638, reference compound] 100
